molecular target: Hap1 (UniProt P0CE41); experiment: PBM E-score (8-mer binding enrichment) (E-score (-0.5 to 0.5)); higher = stronger / more preferred TF binding; conditions: protein concentration: 200 nM; construct: GST-DNA-binding domain
Sequence (P0CE41 whole entry, the tested form may be a part): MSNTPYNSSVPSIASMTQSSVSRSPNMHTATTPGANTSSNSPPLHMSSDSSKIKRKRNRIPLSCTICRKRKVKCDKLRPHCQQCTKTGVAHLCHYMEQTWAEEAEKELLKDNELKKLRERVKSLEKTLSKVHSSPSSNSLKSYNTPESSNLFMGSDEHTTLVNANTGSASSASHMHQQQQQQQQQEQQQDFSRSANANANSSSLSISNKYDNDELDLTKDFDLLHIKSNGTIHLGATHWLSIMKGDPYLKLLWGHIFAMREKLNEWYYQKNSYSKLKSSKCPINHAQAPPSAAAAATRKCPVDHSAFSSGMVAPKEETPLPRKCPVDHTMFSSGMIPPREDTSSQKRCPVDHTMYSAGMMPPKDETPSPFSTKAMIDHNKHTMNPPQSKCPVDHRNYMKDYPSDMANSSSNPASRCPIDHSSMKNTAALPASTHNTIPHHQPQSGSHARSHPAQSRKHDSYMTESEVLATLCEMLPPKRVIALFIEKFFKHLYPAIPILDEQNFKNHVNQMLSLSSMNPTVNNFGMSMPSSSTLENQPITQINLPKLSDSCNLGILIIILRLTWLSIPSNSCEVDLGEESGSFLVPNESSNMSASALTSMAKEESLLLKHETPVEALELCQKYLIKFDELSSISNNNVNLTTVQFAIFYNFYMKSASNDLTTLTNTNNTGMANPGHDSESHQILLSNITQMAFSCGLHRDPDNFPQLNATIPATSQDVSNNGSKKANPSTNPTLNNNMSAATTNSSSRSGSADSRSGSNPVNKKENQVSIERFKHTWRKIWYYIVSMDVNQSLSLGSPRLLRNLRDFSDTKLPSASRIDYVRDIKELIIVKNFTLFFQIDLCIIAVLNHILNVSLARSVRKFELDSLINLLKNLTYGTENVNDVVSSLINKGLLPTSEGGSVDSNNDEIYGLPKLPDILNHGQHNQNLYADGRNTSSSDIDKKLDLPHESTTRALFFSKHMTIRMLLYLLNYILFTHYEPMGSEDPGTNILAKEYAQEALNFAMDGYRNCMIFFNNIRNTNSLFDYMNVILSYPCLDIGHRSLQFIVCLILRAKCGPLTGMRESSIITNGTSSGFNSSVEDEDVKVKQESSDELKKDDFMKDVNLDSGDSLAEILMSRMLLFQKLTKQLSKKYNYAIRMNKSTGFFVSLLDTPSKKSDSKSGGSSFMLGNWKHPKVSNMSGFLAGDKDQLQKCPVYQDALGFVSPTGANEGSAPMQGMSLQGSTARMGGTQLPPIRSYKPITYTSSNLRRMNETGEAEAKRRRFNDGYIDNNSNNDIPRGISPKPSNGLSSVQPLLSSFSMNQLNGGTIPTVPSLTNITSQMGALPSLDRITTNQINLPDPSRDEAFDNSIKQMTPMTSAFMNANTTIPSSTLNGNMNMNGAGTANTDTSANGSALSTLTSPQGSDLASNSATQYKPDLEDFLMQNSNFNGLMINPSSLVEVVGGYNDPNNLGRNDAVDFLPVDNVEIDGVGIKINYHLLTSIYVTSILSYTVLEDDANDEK
Over roughly 33,000 sequences, “E-score (-0.5 to 0.5)” has its median near -0.053; the highest 2% begin near 0.37. What follows is part of a selection rich in the highest values, with near analogues and random picks from the rest.
Lab note: compare PBM E-score against 0.2. Equal or greater, write MET. Smaller, write NOT MET.

residue-codes	category-label
AATCTCGT	NOT MET
CGATATCC	MET
AACGGTCG	MET
ATCGGAAC	MET
CATTAACC	NOT MET

Data request: # bool: PBM E-score of `CTCCGGTA` >= 0.2
Data returned: MET

* * *

biological target: Hap1 (UniProt P0CE41); assay: PBM E-score (8-mer binding enrichment) (E-score (-0.5 to 0.5)); higher = stronger / more preferred TF binding; settings: protein concentration: 200 nM; construct: GST-DNA-binding domain
In all, about 33,000 sequences were measured (“E-score (-0.5 to 0.5)”: median about -0.053, highest 2% from about 0.37 on). The entries come from a sample that favours the highest values as a whole.
value-kind: PBM E-score
Reply: number alone, nothing else.

residue-codes	PBM E-score
AAAGGTGG	-0.156
CGATTCAA	-0.0364
CTCCGAAC	0.415
ATCCGAAG	0.326
ATGAAGCG	-0.208
CAGCTCCG	0.299

Data request: Would you kindly share the measured PBM E-score for `CATCCAGG` ?
Data returned: -0.183

Data request: Follow-up item: `ATTTCCAA`
Data returned: 0.0623

* * *

molecular target: Hap1 (UniProt P0CE41); assay: PBM E-score (8-mer binding enrichment) (E-score (-0.5 to 0.5)); higher = stronger / more preferred TF binding; conditions: protein concentration: 200 nM; construct: GST-DNA-binding domain
Over roughly 33,000 sequences, “E-score (-0.5 to 0.5)” has its median near -0.053; the highest 2% begin near 0.37. Shown is part of a subset that was picked to be rich in the highest values.
Lab note: compare PBM E-score against 0.3. Equal or greater, write fulfilled. Smaller, write not fulfilled.

Example cases with answers are listed next.
residue-codes	measurement-target	category-label
AGCCCGGG	Hap1 (UniProt P0CE41)	fulfilled
CGCTACGA	Hap1 (UniProt P0CE41)	not fulfilled
GGCCGGAA	Hap1 (UniProt P0CE41)	fulfilled
CAAGTGTC	Hap1 (UniProt P0CE41)	not fulfilled
AGCCGGTA	Hap1 (UniProt P0CE41)	fulfilled

Data request: # bool: PBM E-score of `AGCCCCGG` >= 0.3
Data returned: fulfilled

Data request: Follow-up item: `CGCCGTAG`
Data returned: not fulfilled

Data request: Follow-up item: `TAGCATAA`
Data returned: not fulfilled

Data request: Follow-up item: `ATTTCGGA`
Data returned: fulfilled

Data request: Follow-up item: `AGCCCGGA`
Data returned: fulfilled

Data request: Follow-up item: `CTACTACC`
Data returned: not fulfilled

Data request: Follow-up item: `AAGGGTCG`
Data returned: not fulfilled

Data request: Follow-up item: `GTCCCGGA`
Data returned: fulfilled

Data request: Follow-up item: `ATTTCGGC`
Data returned: fulfilled

Data request: Follow-up item: `CATCGAGG`
Data returned: not fulfilled

Data request: Follow-up item: `CGCCGGAG`
Data returned: fulfilled

Data request: Follow-up item: `TCCGCCCA`
Data returned: not fulfilled

Data request: Follow-up item: `AGCCCCCG`
Data returned: not fulfilled

Data request: Follow-up item: `CTCCCGGC`
Data returned: fulfilled

Data request: Follow-up item: `AACCCGGT`
Data returned: fulfilled

Data request: Follow-up item: `GGTAACAA`
Data returned: not fulfilled

Data request: Follow-up item: `GACGGTAC`
Data returned: not fulfilled

Data request: Follow-up item: `AGGGTCAC`
Data returned: not fulfilled

Data request: Follow-up item: `ATGGGAGA`
Data returned: not fulfilled
